I'd appreciate it if you could supply logP values for the items below.

Kindly note the recorded logP for Oc1cc(O)c2ccccc2c1 , which is 1.97

Kindly note the recorded logP for Cc1c[nH]cn1 , which is 0.23

Kindly note the recorded logP for Cc1cccc(C)c1 , which is 3.2

Kindly note the recorded logP for CN(C)C(=O)Nc1cccc(F)c1 , which is 1.37

Kindly note the recorded logP for Cn1ccccc1=O , which is -0.23

Kindly note the recorded logP for COC(=O)CCCCCC(=O)OCC(=O)C1(O)CCC2C3CCC4=CC(=O)CCC4(C)C3C(O)CC21C (stereo not given) , which is 3.7

Kindly note the recorded logP for CCn1nc2ccccc2n1 , which is 2.1

Kindly note the recorded logP for CCCCCCCI , which is 4.7

Kindly note the recorded logP for O=C(NC(=O)c1ccccc1O)c1ccccc1 , which is 1.38

Kindly note the recorded logP for Cc1cc2nccnc2cc1C , which is 2.29

Kindly note the recorded logP for CC(=O)CCC(C)=O , which is -0.27

Kindly note the recorded logP for N#CCC(N)=C(C#N)C#N , which is -0.13

Kindly note the recorded logP for Cc1n[nH]c(C(N)=O)c1[N+](=O)[O-] , which is -0.38

Kindly note the recorded logP for CCCC1(c2ccncc2)CCC(=O)NC1=O (stereo not given) , which is 1.13

Kindly note the recorded logP for O=C(O)COc1cccc(F)c1 , which is 1.48

Kindly note the recorded logP for NCC(F)(F)F , which is 0.24

Kindly note the recorded logP for CCN1CC(C(O)C(CC2CCCCC2)NC(=O)C(Cc2c[nH]cn2)NC(=O)C(CC(=O)N2CC(OCOCCOC)C(OCOCCOC)C2)Cc2ccccc2)OC1=O (stereo not given) , which is 1.87

Kindly note the recorded logP for CCNC(=O)c1ccoc1 , which is 0.72

Kindly note the recorded logP for O=S1(=O)N=CNc2ccccc21 , which is 0.16

Kindly note the recorded logP for Clc1cc(Cl)c(Cl)cc1Cl , which is 4.64

Kindly note the recorded logP for O=C(C(F)(F)F)C(F)(F)F , which is 1.46

Kindly note the recorded logP for CSc1ccccc1 , which is 2.74

Kindly note the recorded logP for C#CC , which is 0.94

Kindly note the recorded logP for NCc1cc(O)no1 , which is -2.39

Kindly note the recorded logP for CN(C)C(=O)OCc1ccc(C#N)cc1 , which is 1.67

Kindly note the recorded logP for O=NN1CCCC1 , which is -0.19

Kindly note the recorded logP for CC(=O)Oc1ccccc1Br , which is 2.2

Kindly note the recorded logP for O=C(O)CCCc1ccccc1 , which is 2.42

Kindly note the recorded logP for CCCCCCCNC(=O)c1ccccc1 , which is 3.94

Kindly note the recorded logP for CCC(=O)OCC(=O)C1(O)CCC2C3CCC4=CC(=O)CCC4(C)C3C(O)CC21C (stereo not given) , which is 2.8

Kindly note the recorded logP for O=[N+]([O-])O[C@H]1CO[C@H]2[C@@H]1OC[C@H]2O[N+](=O)[O-] , which is 1.31

Kindly note the recorded logP for OCCCCCl , which is 0.85

Kindly note the recorded logP for O=C(Nc1ncnc2c1ncn2[C@H]1C[C@H](O)[C@@H](CO)O1)c1ccccc1 , which is 0.22

Kindly note the recorded logP for CCCCOc1ccc(C(N)=O)cc1 , which is 2.48

Kindly note the recorded logP for CC(C)N1CCN=C1CN1CCCCSc2ccc(Cl)cc21 , which is 5.15

Kindly note the recorded logP for CCCCCCOC(=O)c1ccc(O)cc1 , which is 4.35

Kindly note the recorded logP for Cn1c(=O)n(C)c2ccccc21 , which is 1.46

Kindly note the recorded logP for CCOP(=S)(OCC)SCSC(C)(C)C , which is 4.48

Kindly note the recorded logP for O=[N+]([O-])c1ccc(N=C=S)cc1 , which is 3.62

Kindly note the recorded logP for Cc1nn(C)c(OCC(=O)c2ccccc2)c1C(=O)c1ccc(Cl)cc1Cl , which is 3.69

Kindly note the recorded logP for BrCCCc1ccccc1 , which is 3.72

Kindly note the recorded logP for CCNC(=S)Nc1ccccc1 , which is 1.42

Kindly note the recorded logP for Nc1ccnc2ccccc12 , which is 1.63

Kindly note the recorded logP for Clc1cccs1 , which is 2.54

Kindly note the recorded logP for NS(=O)(=O)c1ccc(SCCO)s1 , which is 0.38

Kindly note the recorded logP for Cc1cc(Cl)ccc1N=CN(C)C , which is 2.89

Kindly note the recorded logP for CCN(O)C(N)=O , which is -0.1

Kindly note the recorded logP for Brc1ccc(-c2cc3ccccn3c2)cc1 , which is 5.43

Kindly note the recorded logP for COc1ccc(N)cc1Cl , which is 1.85

Kindly note the recorded logP for COc1cc(C(=O)NN)ccn1 , which is -0.1

Kindly note the recorded logP for CC(=O)c1ccc(S(I)=C(N(C)C)N(C)C)cc1 (stereo not given) , which is -0.85

Kindly note the recorded logP for Clc1ccc(Cl)c(Cl)c1 , which is 4.02

Kindly note the recorded logP for CN1C(=O)CN=C(c2ccc(Cl)cc2)c2cc(F)ccc21 , which is 3.1

Kindly note the recorded logP for ClCCCCl , which is 2

Kindly note the recorded logP for CC(=O)NC(Cc1ccc(O)cc1)C(N)=O (stereo not given) , which is -0.87

Kindly note the recorded logP for O=[N+]([O-])c1cccc(CO)c1 , which is 1.21

Kindly note the recorded logP for CC/C(=C(/CC)c1ccc(O)cc1)c1ccc(O)cc1 , which is 5.07

Kindly note the recorded logP for CC(=O)COc1ccccc1 , which is 1.04

Kindly note the recorded logP for Nc1nc(N)nc(-c2cccc(SC(F)(F)F)c2)n1 , which is 3.2

Kindly note the recorded logP for Clc1ccc(-c2ccc(Cl)c(Cl)c2Cl)c(Cl)c1Cl , which is 7.31

* * *

parameter: logP
Just the number.

Kindly note the recorded logP for CCC(C)NC(=O)C=C(SC)c1ccccc1 (stereo not given) , which is 3.03

Kindly note the recorded logP for CN(C)C(N(C)C)=S(I)c1ccc(F)cc1 (stereo not given) , which is -0.58

Kindly note the recorded logP for Brc1ccc2ncccc2c1 , which is 2.83

Kindly note the recorded logP for O=S1(=O)OCC2C(CO1)C1(Cl)C(Cl)=C(Cl)C2(Cl)C1(Cl)Cl (stereo not given) , which is 3.66

Kindly note the recorded logP for COc1ccccc1CO , which is 1.13

* * *

Peptide text beside a SMILES is read from it.
The label is true for logP below 3 and false for logP equal to or exceeding 3.

**Query** Hi there! Is logP for CSCC[C@H](N)C(=O)O below 3, do you know?
**Result** true

**Query** Hi there! Is logP for CC1=C(O)OC2CC(C)C3C=CC(=O)C3(C)C(O)C12 (stereo not drawn) below 3, do you know?
**Result** true

**Query** Hi there! Is logP for O=[N+]([O-])CCc1ccccc1 below 3, do you know?
**Result** true

**Query** Hi there! Is logP for O=[N+]([O-])c1cccc2ncccc12 below 3, do you know?
**Result** true

**Query** Hi there! Is logP for CSc1ncc2ccccc2n1 below 3, do you know?
**Result** true

**Query** Hi there! Is logP for NC(Cc1ccccc1)C(=O)OCn1ncc2c(=O)[nH]cnc21 (stereo not drawn) below 3, do you know?
**Result** true

**Query** Hi there! Is logP for COc1ccc(OC)c(CC(C)N)c1 (stereo not drawn) below 3, do you know?
**Result** true

**Query** Hi there! Is logP for c1ccc2c(c1)ccc1ncccc12 below 3, do you know?
**Result** false

**Query** Hi there! Is logP for CC(=O)NC(Cc1c[nH]c2ccccc12)C(=O)NCC(=O)NC(Cc1ccccc1)C(N)=O (stereo not drawn) (Ac-Trp-Gly-Phe-NH2; configuration not given here) below 3, do you know?
**Result** true

**Query** Hi there! Is logP for CNC(=O)Oc1ccc(C(C)C)cc1 below 3, do you know?
**Result** true

**Query** Hi there! Is logP for c1ccc2nc3ccccc3cc2c1 below 3, do you know?
**Result** false

**Query** Hi there! Is logP for O=Cc1ccc2cccccc1-2 below 3, do you know?
**Result** true

* * *

I'd appreciate it if you could supply logP values for the items below.
Just the number.

Kindly note the recorded logP for CCC#N , which is 0.16

Kindly note the recorded logP for CCOS(=O)(=O)c1ccc(C)cc1 , which is 1.81

Kindly note the recorded logP for CC(=O)N(C)c1ccc(O)cc1 , which is 0.61

Kindly note the recorded logP for ClCC(Cl)Cl , which is 1.89

Kindly note the recorded logP for CN(C)C(N(C)C)=S(I)c1ccc(Cl)c(Cl)c1Cl (stereo not given) , which is 0.95

Kindly note the recorded logP for O=C(Nc1ccccc1)c1ccccc1O , which is 3.27

Kindly note the recorded logP for O=C1CCCCO1 , which is -0.35

Kindly note the recorded logP for O=C(Nc1ccc(Cl)cc1)c1cccnc1 , which is 2.52

Kindly note the recorded logP for O=C1CCC(=O)N1c1ccc(Br)cc1 , which is 1.18

Kindly note the recorded logP for COc1ccccc1C(C)=O , which is 1.82

Kindly note the recorded logP for NNC(=O)c1cccc(Br)c1 , which is 1.26

Kindly note the recorded logP for CCOc1ccc2cc[nH]c2c1 , which is 2.53

Kindly note the recorded logP for Brc1nc(Br)c(Br)[nH]1 , which is 1.96

Kindly note the recorded logP for CCCOc1cccc(C=C(C(=O)OCC)C(=O)OCC)c1 , which is 4

Kindly note the recorded logP for Oc1c(O)c(Cl)c(Cl)c(Cl)c1Cl , which is 4.29

Kindly note the recorded logP for O=C(NCCO)C(F)(F)Cn1ccnc1[N+](=O)[O-] , which is -0.52

Kindly note the recorded logP for O=C(O)C1CC1 , which is 0.63

Kindly note the recorded logP for CC(C)NCC(O)COc1cccc2[nH]c3ccccc3c12 (stereo not given) , which is 3.59

Kindly note the recorded logP for Nc1nc(N)nc(N)n1 , which is -1.37

Kindly note the recorded logP for CN(C)CCOC(=O)c1ccccc1 , which is 2.06
